Data provenance: ChEMBL document CHEMBL1201862

# Tested on: PC-3
# TEST: NCI tumour cell line growth inhibition, 48 h
The source made the active and inactive calls. Cut-off read from the data, not from the text of the source: active = GI50 up to about 1.1 µM and inactive = higher.
MEASURED QUANTITY: GI50

Example entries and their recorded answers appear below.
>>> print(df.to_string())
                                   molecule  measured_quantity             observed
0  COc1ccc(NCc2cccc3c(=O)c4ccc(Cl)cc4oc23)cc1               GI50  > 100 µM (inactive)
1  COc1cc(C2c3cc4c(cc3OC(N3CCOCC3)C2C)OCO4)cc(OC)c1O (stereo not drawn)               GI50   6.19 µM (inactive)

-- ask Entry "COC(=O)c1ccccc1/C=C1\Cc2cc(C)cc(C)c2C1=O" has what GI50?
-- reply > 100 µM (inactive)

====

# Test system: RPMI-8226
# TEST: NCI tumour cell line growth inhibition, 48 h
Calls of active or inactive are those of the source. Cut-off read from the data, not from the text of the source: active = GI50 up to about 1.1 µM and inactive = higher.
MEASURED QUANTITY: GI50

In [3]: df
Out[3]:
                                   molecule             observed
0  CCOC(=O)C(Cl)(Cl)/S(=N\S(=O)(=O)c1ccccc1)NC(=O)c1ccccc1 (stereo not drawn)  > 100 µM (inactive)
1  N/C(=C\c1ccc(OCc2ccccc2)c(OCc2ccccc2)c1[N+](=O)[O-])C(=O)O  > 100 µM (inactive)

-- ask Field request: GI50 | item: "CC(C)(C)C#COC(=O)c1ccccc1"
-- reply > 100 µM (inactive)

====

Some compounds, each annotated with its measured GI50.
# Test system: OVCAR-8
# TEST: NCI tumour cell line growth inhibition, 48 h
The source made the active and inactive calls. Cut-off read from the data, not from the text of the source: active = GI50 up to about 1.1 µM and inactive = higher.

>>> df
                                   compound  target_system  measured_quantity             observed
0  O=S1(=O)C[C@@H](NCc2ccccc2)[C@H](NCc2ccccc2)C1        OVCAR-8               GI50  > 100 µM (inactive)
1  Cn1c(=O)c2[nH]c(N/N=C3/SCC(=O)N3Cc3ccccc3)nc2n(C)c1=O        OVCAR-8               GI50  > 100 µM (inactive)
2  CC1CN1P1(N2CC2C)=NP(N2CC2C)(N2CC2C)=NP(N2CC2C)(N2CC2C)=N1 (stereo not drawn)        OVCAR-8               GI50   > 50 µM (inactive)

-- ask I'd like to know its GI50. The compound in question is "O=c1cc[nH]c(=O)[nH]1"
-- reply 527 µM (inactive)

-- ask Try the compound "COC(=O)CNC(=O)CNC(=O)CSc1nnc(COc2ccc(Cl)cc2)n1-c1ccccc1"
-- reply > 100 µM (inactive)

-- ask Would you kindly repeat that for Nc1ncnc2c1ncn2C1OC(CSC(F)F)C(O)C1O (stereo not drawn) ?
-- reply > 100 µM (inactive)

-- ask Similarly, "COC(=O)Nc1nc2cc(C(=O)c3ccc[nH]3)ccc2[nH]1" ?
-- reply 3.18 µM (inactive)

-- ask Also "C=CCNC(=S)N/C=C(\C(=O)OCC)C(=O)C(=O)OCC" ?
-- reply > 100 µM (inactive)

====

# Tested on: RXF 393
# TEST: NCI tumour cell line growth inhibition, 48 h
Calls of active or inactive are those of the source. Rule as the data show it: active = GI50 up to about 1.1 µM and inactive = higher.
MEASURED QUANTITY: GI50

Below, each entry is followed by its recorded GI50 result.
In [3]: df
Out[3]:
                                   compound  target_system             observed
0  Cc1ccc(C)c(NC(=O)/C(=N\N)C(c2cnc3ccc([N+](=O)[O-])cc3n2)[N+](=O)[O-])c1 (stereo not drawn)        RXF 393  > 100 µM (inactive)
1  CC1CN1P1(N2CC2C)=NP(N2CC2C)(N2CC2C)=NP(N2CC2C)(N2CC2C)=N1 (stereo not drawn)        RXF 393   > 50 µM (inactive)

Let us examine a further case.
-- ask Fill blank: measured GI50 of the compound "Cc1cc(C)c2c(O)c(S(=O)(=O)c3ccc(Cl)cc3)c(=O)oc2c1" is ____.
-- reply > 100 µM (inactive)

====

The entries below are paired with their reported GI50.
# Test system: OVCAR-3
# TEST: NCI tumour cell line growth inhibition, 48 h
Active and inactive are the calls of the source. Rule as the data show it: active = GI50 up to about 1.1 µM and inactive = higher.

>>> df
                                   molecule  target_system             observed
0        CCN(CC)CCNc1nc(N)c(C#N)c(C#N)c1C#N        OVCAR-3   > 10 µM (inactive)
1  COC(=O)CNC(=O)CNC(=O)CSc1nnc(COc2ccc(Cl)cc2)n1-c1ccccc1        OVCAR-3   19.8 µM (inactive)
2      O=C1OC(c2ccccc2)=N/C1=C\c1ccc(Br)cc1        OVCAR-3  > 100 µM (inactive)
3  CC(=O)O[C@H]1CC[C@H]2[C@@H]3CC[C@H]4Nc5c(cnn5S(C)(=O)=O)C[C@]4(C)[C@H]3CC[C@]12C        OVCAR-3   27.5 µM (inactive)
4  Cc1cn(CCCCOC(=O)NC(CCCNC(N)=O)C(=O)O)c(=O)[nH]c1=O (configuration not stated)        OVCAR-3  > 100 µM (inactive)

-- ask Look up GI50: "Oc1cc(Br)cc2cc(Cl)cnc12"
-- reply 1.95 µM (inactive)

-- ask Let us now turn to CCOc1ccc2nc(NC(=O)C(=O)C(C#N)CC(C)(C)C=O)sc2c1 (configuration not stated)
-- reply > 100 µM (inactive)

====

# System: UACC-62
# TEST: NCI tumour cell line growth inhibition, 48 h
Calls of active or inactive are those of the source. Cut-off read from the data, not from the text of the source: active = GI50 up to about 1.1 µM and inactive = higher.
MEASURED QUANTITY: GI50

                              line_notation  target_system            observed
0  CCOc1cc(-c2nc3ccccn3c2/N=C/c2cc(Br)ccc2O)ccc1O        UACC-62  23.9 µM (inactive)
1        CCN(CC)CCNc1nc(N)c(C#N)c(C#N)c1C#N        UACC-62  > 10 µM (inactive)

-- ask Record lookup: for UACC-62, what GI50 belongs to "Oc1cc(Br)cc2cc(Cl)cnc12" ?
-- reply 2.08 µM (inactive)

====

# Tested on: NCI-H460
# TEST: NCI tumour cell line growth inhibition, 48 h
Activity calls are given as the source filed them. Cut-off read from the data, not from the text of the source: active = GI50 up to about 1.1 µM and inactive = higher.
The reader will find reported GI50 values listed item by item below.

Here is how some compounds turned out for GI50.
                                   compound             observed
0  CC(=O)NC1C(OCc2ccccc2)OC(CO)C(O)C1OCC(=O)NC(C)C(=O)NC(CCC(=O)Nc1ccc2c(c1)CN1C(=O)c3ccccc3C1=N2)C(N)=O (stereo not given)  > 100 µM (inactive)
1  NC(CC(=O)O)(Cc1ccccc1)C(=O)O (stereo not given)  > 100 µM (inactive)
2  COC(=O)c1c(-c2ccccc2)sc(-c2cccc3ccccc23)c1C(=O)OC  > 100 µM (inactive)
3  O=C(CC1C(=O)Nc2ccccc2S1(=O)=O)Nc1cccc(Cl)c1 (stereo not given)   16.7 µM (inactive)

Now for another entry.
-- ask Look up GI50: O=C1CSC(c2ccc(Cl)cc2)N1c1ccc(-n2c(-c3ccccc3)nc3ccccc3c2=O)cc1 (stereo not given)
-- reply 36.5 µM (inactive)

====

# Test system: K562
# TEST: NCI tumour cell line growth inhibition, 48 h
Active and inactive are the calls of the source. Rule as the data show it: active = GI50 up to about 1.1 µM and inactive = higher.
Answer with one of the outcomes 1 for active, -1 for inactive

>>> print(df.to_string())
                                   compound  assigned_label
0  COc1cc2c(/C=C3/C(=O)Nc4ccc(O)cc43)c(Cl)[nH]c2cc1C               1
1                   Cc1ccc(C)n2c1nc1ccccc12              -1
2        CCOC(=O)C(=NN(C)c1ncccc1N)C(=O)OCC              -1
3  N#Cc1c(C#N)c(-c2cccc([N+](=O)[O-])c2)n(-c2ccccc2)c1N              -1
4  COc1ccc2c(c1)C1=NCCN(CCN(C)C)c3ccc([N+](=O)[O-])c(c31)N2               1

-- ask # fetch the recorded call for "O=S1(=O)C[C@@H](NCc2ccccc2)[C@H](NCc2ccccc2)C1" here
-- reply -1

-- ask Also check "Cc1cc(/N=C/c2ccc(Cl)cc2)n(-c2ccccc2)n1"
-- reply -1

-- ask Moving on to COC1=CC(=O)C2C(C1=O)[C@@H]1c3ccccc3OC(C)(C)[C@H]21 (stereo partly drawn)
-- reply -1

-- ask Now consider "COc1ccc(Cc2ccccc2C(=O)O)c2ccccc12" .
-- reply -1

-- ask Another: CC(=O)OC1CCN(C(=O)c2ccccc2)CC1CC1(c2cc3ccccc3[nH]2)OCCO1 (stereo not drawn)
-- reply -1

-- ask Let us now turn to "CCOC(=O)NC(=O)c1cn(CCN2CCNCC2)c(=O)[nH]c1=O"
-- reply -1

-- ask What about "COc1cc2c(SCCN(C)C)nc3ccccc3c2c2ccccc12" ?
-- reply -1

-- ask Repeat for the following compound: CCOC(=O)C(Cl)(Cl)/S(=N\S(=O)(=O)c1ccccc1)NC(=O)c1ccccc1 (stereo not drawn)
-- reply -1

-- ask Subsequent entry: "O=C(O)CNCc1c2ccccc2[n+]([O-])c2ccccc12"
-- reply -1

-- ask "O=C(O)COc1cc(-c2ccccc2)nc2ccc(F)cc12" ?
-- reply -1
